assay: Hydrophobicity by isocratic reverse phase HPLC; assay type: physicochemical; conditions: k'rel, isocratic RP-HPLC, pH 7.3, human insulin = 1
Starred links: 1 amine or outer side, 2 acyl side, 3 side chain; linkers in the order of their positions; H or OH if unused. Positions of bridges follow the written chain, without caps; N, C: chain ends. Groups on a side chain read outwards from the residue. Chains are numbered I, II in the order given. No end group written: not given here. *: point of attachment. C20 diacid = O=C(O)CCCCCCCCCCCCCCCCCCC(=O)*; C18 diacid = O=C(O)CCCCCCCCCCCCCCCCC(=O)*; NMe2Phe = CN(C)[C@@H](Cc1ccccc1)C(=O)*; γGlu = O=C(O)[C@H](CCC(=O)[*:2])N[*:1]; AEEA = NCCOCCOCC(=O)O; Me2Gly = CN(C)CC(=O)*

SUBSTANCE: I: NMe2Phe-VCQHLCGSHLVEALYLVCGERGFHYTPK([γGlu-C18 diacid]) / II: Me2Gly-IVEQCCTSCCSLEQLENYCN (disulfide I:2-II:9, I:6-II:6, I:18-II:19, II:5-II:10) [Example 3]
Hydrophobicity rel. to human insulin: 0.065
//
SUBSTANCE: I: NMe2Phe-VCQHLCGSHLVEALYLVCGERGFHYTPK([AEEA-AEEA-γGlu-C18 diacid]) / II: Me2Gly-IVEQCCTSCCSLEQLENYCN (disulfide I:2-II:9, I:6-II:6, I:18-II:19, II:5-II:10) [Example 12]
Hydrophobicity rel. to human insulin: 0.077
//
SUBSTANCE: I: NMe2Phe-VCQHLCGSHLVEALYLVCGERGFHYTPK([AEEA-AEEA-γGlu-C20 diacid]) / II: Me2Gly-IVEQCCTSCCSLEQLENYCN (disulfide I:2-II:9, I:6-II:6, I:18-II:19, II:5-II:10) [Example 2]
Hydrophobicity rel. to human insulin: 0.38
//
SUBSTANCE: I: NMe2Phe-VCQHLCGSHLVEALHLVCGERGFHYTPK([AEEA-AEEA-γGlu-C20 diacid]) / II: Me2Gly-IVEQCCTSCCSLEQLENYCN (disulfide I:2-II:9, I:6-II:6, I:18-II:19, II:5-II:10) [Example 28]
Hydrophobicity rel. to human insulin: 0.298

* * *

test: Chemical stability of insulin derivatives in 2 mM phosphate (SEC-HPLC and RP-HPLC); assay type: physicochemical; conditions: pH 7.5, SEC-HPLC, 4 weeks 37° C. minus 5° C. start sample
Starred links: 1 amine or outer side, 2 acyl side, 3 side chain; linkers in the order of their positions; H or OH if unused. Positions of bridges follow the written chain, without caps; N, C: chain ends. Groups on a side chain read outwards from the residue. Chains are numbered I, II in the order given. No end group written: not given here. *: point of attachment. C20 diacid = O=C(O)CCCCCCCCCCCCCCCCCCC(=O)*; C18 diacid = O=C(O)CCCCCCCCCCCCCCCCC(=O)*; NMe2Phe = CN(C)[C@@H](Cc1ccccc1)C(=O)*; γGlu = O=C(O)[C@H](CCC(=O)[*:2])N[*:1]; AEEA = NCCOCCOCC(=O)O; Me2Gly = CN(C)CC(=O)*
Quick reference: HMWP Formation (%) (4 weeks 37° C.- 0 weeks 5° C.) of the listed items.
ENDPOINT: HMWP Formation (%) (4 weeks 37° C.- 0 weeks 5° C.)

SUBSTANCE: I: Me2Gly-VCQHLCGSHLVEALYLVCGERGFHYPK([AEEA-AEEA-γGlu-C18 diacid]) / II: Me2Gly-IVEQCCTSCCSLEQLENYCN (disulfide I:2-II:9, I:6-II:6, I:18-II:19, II:5-II:10) [Example 15]
RESULT UNIT: %
RESULT NUMBER: 1.2
//
SUBSTANCE: I: NMe2Phe-VCQHLCGSHLVEALYLVCGERGFHYPK([AEEA-AEEA-γGlu-C18 diacid]) / II: Me2Gly-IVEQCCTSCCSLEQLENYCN (disulfide I:2-II:9, I:6-II:6, I:18-II:19, II:5-II:10) [Example 11]
RESULT UNIT: %
RESULT NUMBER: −0.2
//
SUBSTANCE: I: Me2Gly-VCQHLCGSHLVEALYLVCGERGFFYPK([AEEA-AEEA-γGlu-C18 diacid]) / II: Me2Gly-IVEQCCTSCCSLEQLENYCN (disulfide I:2-II:9, I:6-II:6, I:18-II:19, II:5-II:10) [Example 14]
RESULT UNIT: %
RESULT NUMBER: 0.0
//
SUBSTANCE: I: Me2Gly-VCQHLCGSHLVEALYLVCGERGFHYPK([γGlu-C18 diacid]) / II: Me2Gly-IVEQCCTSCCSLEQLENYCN (disulfide I:2-II:9, I:6-II:6, I:18-II:19, II:5-II:10) [Example 7]
RESULT UNIT: %
RESULT NUMBER: 0.4
//
SUBSTANCE: I: Me2Gly-VCQHLCGSHLVEALHLVCGERGFHYTPK([γGlu-C18 diacid]) / II: Me2Gly-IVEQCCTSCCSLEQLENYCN (disulfide I:2-II:9, I:6-II:6, I:18-II:19, II:5-II:10) [Example 8]
RESULT UNIT: %
RESULT NUMBER: 54.5
//
SUBSTANCE: I: NMe2Phe-VCQHLCGSHLVEALYLVCGERGFHYTPK([γGlu-C20 diacid]) / II: Me2Gly-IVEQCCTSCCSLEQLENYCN (disulfide I:2-II:9, I:6-II:6, I:18-II:19, II:5-II:10) [Example 19]
RESULT UNIT: %
RESULT NUMBER: 34.6
//
SUBSTANCE: I: NMe2Phe-VCQHLCGSHLVEALYLVCGERGFHYTPK([AEEA-AEEA-γGlu-C20 diacid]) / II: Me2Gly-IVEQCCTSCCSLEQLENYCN (disulfide I:2-II:9, I:6-II:6, I:18-II:19, II:5-II:10) [Example 2]
RESULT UNIT: %
RESULT NUMBER: 0.0
//
SUBSTANCE: I: Me2Gly-VCQHLCGSHLVEALYLVCGERGFHYTPK([AEEA-AEEA-γGlu-C18 diacid]) / II: Me2Gly-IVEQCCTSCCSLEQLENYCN (disulfide I:2-II:9, I:6-II:6, I:18-II:19, II:5-II:10) [Example 16]
RESULT UNIT: %
RESULT NUMBER: 42.7
//
SUBSTANCE: I: NMe2Phe-VCQHLCGSHLVEALHLVCGERGFHYTPK([γGlu-C18 diacid]) / II: Me2Gly-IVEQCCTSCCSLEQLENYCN (disulfide I:2-II:9, I:6-II:6, I:18-II:19, II:5-II:10) [Example 4]
RESULT UNIT: %
RESULT NUMBER: −0.4
//
SUBSTANCE: I: NMe2Phe-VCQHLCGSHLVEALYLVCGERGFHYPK([γGlu-C20 diacid]) / II: Me2Gly-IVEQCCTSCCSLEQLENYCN (disulfide I:2-II:9, I:6-II:6, I:18-II:19, II:5-II:10) [Example 18]
RESULT UNIT: %
RESULT NUMBER: 5.1
